- System: L. donovani intracellular amastigotes in B10R cells
- assay name: UCSD L. donovani infection assay (Assay Conditions D)
- Type: cell-based
- condition info: B10R cells
test readout: L. donovani amastigotes EC75 (μM, B10R cells)

| molecule | recorded measurement |
| --- | --- |
| COc1cc(OC)cc(N2C(=O)c3[nH]nc(CC(C)C)c3C2c2ccc(F)cc2)c1 (stereo not shown) | >10 µM |
| Cc1cccc(N2C(=O)c3[nH]nc(CC(C)C)c3C2c2ccc(F)cc2)n1 (stereo not shown) | >10 µM |
| CCn1cc(N2C(=O)c3[nH]nc(CC(C)C)c3C2c2ccccc2C(F)(F)F)cn1 (stereo not shown) | >5 µM |
| COc1ccc(N2C(=O)c3[nH]nc(CC(C)C)c3C2c2ccc(F)cc2F)cn1 (stereo not shown) | 3.3 µM |
| COc1ncccc1C1c2c(CC(C)C)n[nH]c2C(=O)N1c1ncc(Cl)cc1C (stereo not shown) | >10 µM |
| CC(C)Cc1n[nH]c2c1C(c1ccc(Cl)cc1Cl)N(c1ccc(C(=O)N3CCCC3)cc1)C2=O (stereo not shown) | >10 µM |
| CC(C)Cc1n[nH]c2c1C(c1sccc1Br)N(c1ccn(C)n1)C2=O (stereo not shown) | >10 µM |
| CC(C)Cc1n[nH]c2c1C(c1ccccc1Cl)N(c1ccc(C(=O)N3CCCC3)cc1)C2=O (stereo not shown) | >10 µM |
| Cc1cc(Cl)cnc1N1C(=O)c2[nH]nc(CC(C)C)c2C1c1ccc(F)cc1 (stereo not shown) | >10 µM |
| C#CCCCCn1nc(CC(C)C)c2c1C(=O)N(c1ccc(OC)cc1)C2c1ccc(F)cc1 (stereo not shown) | >10 µM |
| Cc1cc(F)ccc1C1c2c(CC(C)C)n[nH]c2C(=O)N1c1ccn(C)n1 (stereo not shown) | >10 µM |
| Cc1ccccc1C1c2c(CC(C)C)n[nH]c2C(=O)N1c1ccn(C)n1 (stereo not shown) | >10 µM |
| CCn1cc(N2C(=O)c3[nH]nc(CC(C)C)c3C2c2ccc(Cl)cc2F)cn1 (stereo not shown) | >10 µM |
